The reported numbers originate from PubChem BioAssay (NCI).

experiment: NCI Yeast Anticancer Drug Screen. Data for the cln2 rad14 strain (AID 165); settings: S. cerevisiae cln2 rad14 strain, at 50.0 µM (retest, dose inferred, filed as 5.0), active compounds read high
Compounds without any hit were thinned out: in the full panel of roughly 79,000, 15% have a hit.
Class Satisfied: growth inhibition at least 60%. Class Not satisfied: growth inhibition below 60%.

compound	label
C=C1C(=O)C2=CC1CCC(=O)C1(C)CCC(OC(C)=O)C(C)(C)C1CC2O (centres undefined)	Not satisfied
COc1ccc2nc3cc(Cl)ccc3c(NCCCCCN3CCCCC3)c2c1	Not satisfied
O=C(/C=C/c1ccccc1)c1ccc(N=Cc2ccccc2)cc1	Not satisfied
Oc1ccc(/C=C/c2ccc(Cl)cc2)cc1	Satisfied
C/C=C/c1cc2c(c(=O)o1)C(=O)[C@@H](O)[C@H](C)O2	Not satisfied

Req: Threshold query (growth inhibition >= 60%) on "O=C(OC12CC3CC(CC(C3)C1)C2)c1ccc(NCc2cc(O)ccc2O)cc1"
Resp: Satisfied

Req: growth inhibition >= 60% for "Cc1ccc(/C=N/Nc2cc(C)c3cccc(C)c3n2)s1" ?
Resp: Satisfied

Req: Assess whether reported growth inhibition for "Cc1c2c(c(C)c3c[n+](C)ccc13)Oc1ccccc1O2" sits at 60% or higher.
Resp: Not satisfied

Req: Check the entry "S=C1SCN(Cc2cccs2)CN1Cc1cccs1" : does growth inhibition equal or exceed 60%?
Resp: Satisfied

Req: hey, is growth inhibition for this one >= 60%? "O=[N+]([O-])c1ccc(C(Br)c2ccc([N+](=O)[O-])cc2)cc1"
Resp: Satisfied

Req: Does the compound Cc1cc(O)c2c(c1)C(=O)C(c1c(C)cc3c(c1O)C(=O)C1OC1C3=O)=CC2=O (centres undefined) have recorded growth inhibition that is 60% or more?
Resp: Satisfied

Req: Entry "Nc1ccc(-c2ccc(N)c(S(=O)(=O)O)c2)cc1S(=O)(=O)O" : is its growth inhibition no less than 60%?
Resp: Not satisfied

Req: Given "COc1cccc(NC(=O)C(C#N)=C(SC)SC)c1" , state whether its growth inhibition is at least 60%.
Resp: Not satisfied

Req: Does Oc1c(Cl)cc(Cl)cc1C=NCC1CCC(CN=Cc2cc(Cl)cc(Cl)c2O)CC1 (centres undefined) have a reported growth inhibition of at least 60%?
Resp: Not satisfied
